biological target: glucagon receptor (UniProt P47871 26-477, limits assumed); assay: cell-based or functional assay
Sequence (P47871 26-477 limits assumed): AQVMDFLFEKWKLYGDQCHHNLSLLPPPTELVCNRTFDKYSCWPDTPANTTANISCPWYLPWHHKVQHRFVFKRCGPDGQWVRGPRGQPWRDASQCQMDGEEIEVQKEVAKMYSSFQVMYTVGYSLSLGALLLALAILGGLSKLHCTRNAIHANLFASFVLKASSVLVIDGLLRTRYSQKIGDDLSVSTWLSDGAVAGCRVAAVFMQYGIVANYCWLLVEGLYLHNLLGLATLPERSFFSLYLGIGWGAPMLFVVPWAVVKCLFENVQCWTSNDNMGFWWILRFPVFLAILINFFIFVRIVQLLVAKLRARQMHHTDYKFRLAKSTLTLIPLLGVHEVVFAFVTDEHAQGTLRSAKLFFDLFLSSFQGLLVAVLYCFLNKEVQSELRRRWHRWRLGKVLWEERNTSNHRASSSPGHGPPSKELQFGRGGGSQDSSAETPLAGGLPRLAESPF
Numbered stars: 1 amine (or outer) side, 2 acyl side, 3 side chain; on linkers, the order of the positions; unused ones are H or OH. Square brackets hold non-standard residues; d marks the D form. Primed or numbered codes have the meaning given here. Side chains are listed from the residue outwards. Ends that are not written are not given here. * marks the point of attachment. 40K‑TE PEG = 40 kDa PEG covalently bound via thioether, formed by reaction of the free thiol of the peptide (Cys side chain) with an iodoacetic-functionalized PEG; 20K‑TE PEG″ = 20 kDa PEG attached via a thioether, formed by reacting the free thiol of the peptide with an iodoacetic-functionalized PEG; 12K‑ME PEG = 12 kDa PEG bound via maleimido-thioether; γGlu = O=C(O)[C@H](CCC(=O)[*:2])N[*:1]; Palmitoyl = CCCCCCCCCCCCCCCC(=O)*; EC16 = not defined here; Aib = CC(C)(N)C(=O)O
Cut-off 0.1 nM on EC50 (nM) at glucagon receptor: below means y, at or above means n.

- binder: "H[Aib]QGTFTSDYSKYLD[Aib]KRAKEFVQWLLC(40K‑TE PEG)T-OH [peptide of SEQ ID NO: 39]"
  classAssignment: "n"
- binder: "H[dS]QGTFTSDK([γGlu-Palmitoyl])SKYLDEQAAKEFIC(20K‑TE PEG″)WLLDT-NH2 [peptide of SEQ ID NO: 44]"
  classAssignment: "y"
- binder: "H[Aib]QGTFTSDK([γGlu-Palmitoyl])SKYLD[Aib]RAAQDFVQWLMKTK[dE]-OH [peptide of SEQ ID NO: 60]"
  classAssignment: "n"
- binder: "H[Aib]QGTFTSDYSKYLDEK[Aib]AKEFVC(40K‑TE PEG)WLLDT-NH2 [peptide of SEQ ID NO: 52]"
  classAssignment: "n"
- binder: "H[Aib]QGTFTSDYSKYLD[Aib]KRA[Aib]EFVC(40K‑TE PEG)WLLDGGPSSGAPPPS-NH2 [peptide of SEQ ID NO: 46]"
  classAssignment: "n"
- binder: "H[dS]QGTFTSDK([γGlu-Palmitoyl])SKYLDEQAAKEFIC(12K‑ME PEG)WLLDT-NH2 [peptide of SEQ ID NO: 43]"
  classAssignment: "y"
- binder: "H[Aib]QGTFTSDYSKYLDERRA[Aib]EFVC(40K‑TE PEG)WLLDGGPSSGAPPPS-NH2 [peptide of SEQ ID NO: 35]"
  classAssignment: "n"
- binder: "H[dS]QGTFTSDK(benzoylpropionyl)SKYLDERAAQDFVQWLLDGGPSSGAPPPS-NH2 [peptide of SEQ ID NO: 49]"
  classAssignment: "y"
- binder: "H[Aib]QGTFTSDYSKYLDEKRA[Aib]EFVC(40K‑TE PEG)WLL[Aib]T-NH2 [peptide of SEQ ID NO: 41]"
  classAssignment: "n"
- binder: "H[dS]QGTFTSDK(EDTA amide)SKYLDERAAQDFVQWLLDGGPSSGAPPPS-NH2 [peptide of SEQ ID NO: 55]"
  classAssignment: "n"
- binder: "HXQGTFTSDKSKYLDERAAQDFVQWLMDT (Aib at 2; Lys 10 acylated, printed K(γEyEC16); C-terminal amide) [peptide of SEQ ID NO: 61]"
  classAssignment: "y"
- binder: "H[Aib]QGTFTSDKSKYLDERRA[Aib]DFVQWLMNT-NH2 (not fully specified (residue 10); printed as HaibQGTFTSDK(C16 acyl)SKYLDERRAaibDFVQWLMNT-amide) [peptide of SEQ ID NO: 59]"
  classAssignment: "y"
- binder: "H[Aib]QGTFTSDYSKYLD[Aib]KRAKEFVQWLLDTC(40K‑TE PEG)-NH2 [peptide of SEQ ID NO: 40]"
  classAssignment: "n"
- binder: "H[Aib]QGTFTSDYSKYLDEKRA[Aib]EFVC(40K‑TE PEG)WLLDGGPSSGAPPPS-NH2 [peptide of SEQ ID NO: 47]"
  classAssignment: "n"
- binder: "H[Aib]QGTFTSDYSKYLD[Aib]KRA[Aib]EFVC(40K‑TE PEG)WLLDT-NH2 [peptide of SEQ ID NO: 38]"
  classAssignment: "n"
- binder: "H[dS]QGTFTSDK([γGlu-adamantylacetyl])SKYLDERAAQDFVQWLLDT-NH2 [peptide of SEQ ID NO: 48]"
  classAssignment: "y"
- binder: "H[Aib]QGTFTSDYSKYLDEKRA[Aib]DFVC(40K‑TE PEG)WLLDT-NH2 [peptide of SEQ ID NO: 54]"
  classAssignment: "n"
- binder: "H[Aib]QGTFTSDYSKYLDEKRA[Aib]EFVC(40K‑TE PEG)WLLDT-NH2 [peptide of SEQ ID NO: 13]"
  classAssignment: "n"
- binder: "H[Aib]QGTFTSDYSKYLDEKRA[Aib]EFVC(40K‑TE PEG)WLLDT-OH [peptide of SEQ ID NO: 45]"
  classAssignment: "n"
- binder: "H[dS]QGTFTSDK([γGlu-EC16])SKYLDERAAQDFVQWLLDGRG-NH2 (reading uncertain; also: printed as HsQGTFTSDK(gammaGlu-EC16)SKYLDERAAQDFVQWLLDGRG-amide) [peptide of SEQ ID NO: 19]"
  classAssignment: "y"
- binder: "H[Aib]QGTFTSDYSKYLDEKRA[Aib]EFVC(40K‑TE PEG)WLMDT-NH2 [peptide of SEQ ID NO: 15]"
  classAssignment: "n"

Origin of the recorded values: patent US20140206607A1
